target: hERG (KCNH2) (Homo sapiens, UniProt Q12809); experiment: Inhibition of hERG at 40 uM by whole cell Qpatch assay relative to control; format: toxicity
Sequence (Q12809 whole entry): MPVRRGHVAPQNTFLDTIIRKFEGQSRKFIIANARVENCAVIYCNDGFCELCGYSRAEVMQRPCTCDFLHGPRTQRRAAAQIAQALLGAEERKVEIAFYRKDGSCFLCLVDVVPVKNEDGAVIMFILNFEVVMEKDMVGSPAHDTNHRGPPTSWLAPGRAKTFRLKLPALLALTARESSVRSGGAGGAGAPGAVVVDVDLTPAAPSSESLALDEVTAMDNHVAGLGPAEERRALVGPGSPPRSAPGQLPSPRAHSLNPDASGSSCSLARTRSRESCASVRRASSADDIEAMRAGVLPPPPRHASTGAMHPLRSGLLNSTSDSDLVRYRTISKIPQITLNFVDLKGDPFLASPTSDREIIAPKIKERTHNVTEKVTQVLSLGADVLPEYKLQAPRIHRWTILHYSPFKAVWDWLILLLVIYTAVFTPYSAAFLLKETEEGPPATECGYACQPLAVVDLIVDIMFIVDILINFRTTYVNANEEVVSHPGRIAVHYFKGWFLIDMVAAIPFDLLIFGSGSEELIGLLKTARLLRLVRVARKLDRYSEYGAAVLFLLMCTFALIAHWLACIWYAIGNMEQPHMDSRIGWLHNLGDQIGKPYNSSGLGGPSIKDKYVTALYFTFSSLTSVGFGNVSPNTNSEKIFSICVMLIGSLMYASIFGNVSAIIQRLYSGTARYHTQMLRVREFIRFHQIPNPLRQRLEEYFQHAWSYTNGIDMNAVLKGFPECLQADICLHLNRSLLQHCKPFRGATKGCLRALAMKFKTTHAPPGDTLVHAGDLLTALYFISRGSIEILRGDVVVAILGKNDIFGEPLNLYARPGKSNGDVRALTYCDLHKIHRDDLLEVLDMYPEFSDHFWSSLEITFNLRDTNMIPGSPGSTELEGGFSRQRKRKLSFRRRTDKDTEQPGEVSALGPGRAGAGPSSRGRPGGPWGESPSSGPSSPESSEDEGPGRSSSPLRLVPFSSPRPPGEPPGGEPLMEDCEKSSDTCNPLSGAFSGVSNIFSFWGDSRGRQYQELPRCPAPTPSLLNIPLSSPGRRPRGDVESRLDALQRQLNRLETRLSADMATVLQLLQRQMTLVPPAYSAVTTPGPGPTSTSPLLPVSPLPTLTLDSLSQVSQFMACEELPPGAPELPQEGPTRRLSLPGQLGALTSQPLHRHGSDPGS
I'd be grateful if you could share measured inhibition at 40 µM for these entries.
Give bare numbers, in %.

INSERT INTO measurements (compound, measurement_kind, quantity_unit, test_result) VALUES
  ('Nc1nc(/C(=N/O[C@@H](C(=O)O)C2CCC(F)(F)CC2)C(=O)N[C@@H]2C(=O)N3C(C(=O)O)=C(CSCCNC(=O)c4ccc(O)c(O)c4Cl)CS[C@H]23)cs1.O=C(O)C(F)(F)F', 'inhibition at 40 µM', '%', 6.67),
  ('Nc1nc(/C(=N/O[C@H](C(=O)O)C2CCC(F)(F)CC2)C(=O)N[C@@H]2C(=O)N3C(C(=O)O)=C(CSCCNC(=O)c4ccc(O)c(O)c4Cl)CS[C@H]23)cs1.O=C(O)C(F)(F)F', 'inhibition at 40 µM', '%', 23.8),
  ('C[C@@](O/N=C(\C(=O)N[C@@H]1C(=O)N2C(C(=O)O)=C(CSCCNC(=O)c3ccc(O)c(O)c3Cl)CS[C@H]12)c1nc(N)sc1Cl)(C(=O)O)C(F)(F)F.O=C(O)C(F)(F)F', 'inhibition at 40 µM', '%', 40.5);

Problem: Reported inhibition at 40 µM for hERG (KCNH2) (Homo sapiens, UniProt Q12809), given Nc1nc(/C(=N/OC(C(=O)O)C2CCC(F)(F)CC2)C(=O)N[C@@H]2C(=O)N3C(C(=O)O)=C(CSCCNC(=O)c4ccc(O)c(O)c4Cl)CS[C@H]23)cs1.O=C(O)C(F)(F)F (some centres undefined) ?
Result: 16.8

====

biological target: hERG (KCNH2) (Homo sapiens); test: Inhibition of hERG at 3 uM by whole cell Qpatch assay relative to control; format: toxicity
Measurement Kind: inhibition at 3 µM
Returns: string containing the numeric result and its unit.

Problem: Data request, read-out inhibition at 3 µM, for COc1cc(N)c(Cl)cc1C(=O)N[C@H]1CCN(CCCOc2ccc(F)cc2)C[C@H]1OC [REL-CISAPRIDE]
Result: 97.8%

====

experiment: Volume of distribution at steady state in ICR mouse at 20 mg/kg,iv administration measured upto 6 hrs by LC-MS/MS analysis; format: ADME, organism-based; conditions: in vivo, read-out: Vdss
Please respond with reported Vd for every item in the list.
Give bare numbers, in L/kg.

Please review the following examples before continuing.
INSERT INTO results (compound, measurement_kind, test_result) VALUES
  ('CC(C)(C)C1CCC(C(O/N=C(\C(=O)N[C@@H]2C(=O)N3C(C(=O)O)=C(CSCCNC(=O)c4ccc(O)c(O)c4Cl)CS[C@H]23)c2csc(N)n2)C(=O)O)CC1.O=C(O)C(F)(F)F (stereo partly drawn)', 'Vd', 7.23),
  ('Cl.Nc1nc(/C(=N/OC(C(=O)O)C2CCC(F)(F)CC2)C(=O)N[C@@H]2C(=O)N3C(C(=O)O)=C(CSCCNC(=O)c4ccc(O)c(O)c4Cl)CS[C@H]23)cs1 (stereo partly drawn)', 'Vd', 0.997);

Next:
Problem: May I ask what Vd has been recorded for C[C@@](O/N=C(\C(=O)N[C@@H]1C(=O)N2C(C(=O)O)=C(CSCCNC(=O)c3ccc(O)c(O)c3Cl)CS[C@H]12)c1nc(N)sc1Cl)(C(=O)O)C(F)(F)F.O=C(O)C(F)(F)F ?
Result: 7.74

====

Consider the following compounds; for each one, report its Vd.
experiment: Volume of distribution at steady state in ICR mouse at 20 mg/kg,iv administration measured upto 6 hrs by LC-MS/MS analysis; assay type: ADME, organism-based; conditions: in vivo, read-out: Vdss

INSERT INTO measurements (compound, test_result) VALUES
  ('Nc1nc(/C(=N/OC(C(=O)O)C2CCC(F)(F)CC2)C(=O)N[C@@H]2C(=O)N3C(C(=O)O)=C(CSCCNC(=O)c4ccc(O)c(O)c4Cl)CS[C@H]23)c(Cl)s1.O=C(O)C(F)(F)F (stereo partly drawn)', '0.649 L/kg'),
  ('Nc1nc(/C(=N/OC(C(=O)O)C2CCC(F)(F)CC2)C(=O)N[C@@H]2C(=O)N3C(C(=O)O)=C(CSCCNC(=O)c4ccc(O)c(O)c4Cl)CS[C@H]23)cs1.O=C(O)C(F)(F)F (stereo partly drawn)', '1.59 L/kg');

Problem: What value of Vd has been recorded for this entry: Nc1nc(/C(=N/OC(C(=O)O)C2CCCCC2)C(=O)N[C@@H]2C(=O)N3C(C(=O)O)=C(CSCCNC(=O)c4ccc(O)c(O)c4Cl)CS[C@H]23)cs1.O=C(O)C(F)(F)F (stereo partly drawn)
Result: 1.73 L/kg

====

test system: Escherichia coli; assay: Antibacterial activity against Escherichia coli NCTC-13353 assessed as inhibition of bacterial growth incubated for 18 to 20 hrs in presence of CAMHB medium by two fold serial dilution assay; format: functional; settings: time 18-20 hrs
Measurement Kind: MIC (µg/mL)
Give bare numbers, in µg/mL.

Consider the following illustrative entries.
INSERT INTO measurements (compound, quantity_unit, test_result) VALUES
  ('CC(C)(O/N=C(\C(=O)N[C@@H]1C(=O)N2C(C(=O)[O-])=C(C[N+]3(CCNC(=O)c4ccc(O)c(O)c4Cl)CCCC3)CS[C@H]12)c1csc(N)n1)C(=O)O', 'µg/mL', 0.5),
  ('Nc1nc(/C(=N/OC(C(=O)O)C2CCC(F)(F)CC2)C(=O)N[C@@H]2C(=O)N3C(C(=O)O)=C(CSCCNC(=O)c4ccc(O)c(O)c4Cl)CS[C@H]23)cs1.O=C(O)C(F)(F)F (stereo partly drawn)', 'µg/mL', 0.5);

Switching to the query record.
Problem: Please give the measured MIC for this compound: Nc1nc(/C(=N/O[C@@H](C(=O)O)C2CCC(F)(F)CC2)C(=O)N[C@@H]2C(=O)N3C(C(=O)O)=C(CSCCNC(=O)c4ccc(O)c(O)c4Cl)CS[C@H]23)cs1.O=C(O)C(F)(F)F
Result: 1

====

tested on: Acinetobacter baumannii; experiment: Antibacterial activity against OXA-23 producing multidrug-resistant Acinetobacter baumannii clinical isolate 17-5 assessed as inhibition of bacterial growth incubated for 18 to 20 hrs by two fold serial dilution assay; assay type: functional; conditions: time 18-20 hrs
Can you tell me MIC for the items I'm about to list?
Answers are plain numbers, in µg/mL.

Examples with answers:
INSERT INTO results (given_smiles, measurement_kind, quantity_unit, test_result) VALUES
  ('Nc1nc(/C(=N/O[C@H](C(=O)O)C2CCC(F)(F)CC2)C(=O)N[C@@H]2C(=O)N3C(C(=O)O)=C(CSCCNC(=O)c4ccc(O)c(O)c4Cl)CS[C@H]23)cs1.O=C(O)C(F)(F)F', 'MIC', 'µg/mL', 0.25),
  ('C[C@@](O/N=C(\C(=O)N[C@@H]1C(=O)N2C(C(=O)O)=C(CSCCNC(=O)c3ccc(O)c(O)c3Cl)CS[C@H]12)c1nc(N)sc1Cl)(C(=O)O)C(F)(F)F.O=C(O)C(F)(F)F', 'MIC', 'µg/mL', 0.125),
  ('CC(C)[C@@H](O/N=C(\C(=O)N[C@@H]1C(=O)N2C(C(=O)O)=C(CSCCNC(=O)c3ccc(O)c(O)c3Cl)CS[C@H]12)c1csc(N)n1)C(=O)O.O=C(O)C(F)(F)F', 'MIC', 'µg/mL', 2);

Lab note: next compound to report on.
Problem: GET /values?readout=MIC&item= CC(C)(O/N=C(\C(=O)N[C@@H]1C(=O)N2C(C(=O)[O-])=C(C[N+]3(CCNC(=O)c4ccc(O)c(O)c4Cl)CCCC3)CS[C@H]12)c1csc(N)n1)C(=O)O
Result: 2

====

I'd appreciate it if you could supply AUC(0-inf) values for the items below.
test: AUC (0 to infinity) in ICR mouse at 20 mg/kg,iv administration measured upto 4 hrs by LC-MS/MS analysis; format: ADME, organism-based; conditions: in vivo
One number for each entry, in ng·h/mL.

INSERT INTO results (given_smiles, quantity_unit, test_result) VALUES
  ('Nc1nc(/C(=N/O[C@@H](C(=O)[O-])C2CCC(F)(F)CC2)C(=O)N[C@@H]2C(=O)N3C(C(=O)O)=C(CSCCNC(=O)c4ccc(O)c(O)c4Cl)CS[C@H]23)cs1.[Na+]', 'ng·h/mL', 8910);

--- query ---
Problem: # AUC(0-inf) lookup, item Cc1ccc(S(=O)(=O)O)cc1.Nc1nc(/C(=N/O[C@@H](C(=O)O)C2CCC(F)(F)CC2)C(=O)N[C@@H]2C(=O)N3C(C(=O)O)=C(CSCCNC(=O)c4ccc(O)c(O)c4Cl)CS[C@H]23)cs1
Result: 2160

====

Consider the following compounds; for each one, report its MIC.
tested on: Escherichia coli; assay: Antibacterial activity against ESBL-producing multidrug-resistant Escherichia coli clinical isolate 14-1 assessed as inhibition of bacterial growth incubated for 18 to 20 hrs by two fold serial dilution assay; assay type: functional; conditions: time 18-20 hrs
Give bare numbers, in µg/mL.

Before answering, review these 3 worked examples.
INSERT INTO results (compound, quantity_unit, test_result) VALUES
  ('Nc1nc(/C(=N/OC(C(=O)O)C2CCCCC2)C(=O)N[C@@H]2C(=O)N3C(C(=O)O)=C(CSCCNC(=O)c4ccc(O)c(O)c4Cl)CS[C@H]23)c(Cl)s1.O=C(O)C(F)(F)F (stereo partly specified)', 'µg/mL', 0.25),
  ('C[C@](O/N=C(\C(=O)N[C@@H]1C(=O)N2C(C(=O)O)=C(CSCCNC(=O)c3ccc(O)c(O)c3Cl)CS[C@H]12)c1nc(N)sc1Cl)(C(=O)O)C(F)(F)F.O=C(O)C(F)(F)F', 'µg/mL', 0.06),
  ('CC(C)(O/N=C(\C(=O)N[C@@H]1C(=O)N2C(C(=O)O)=C(CSCCOCCNC(=O)c3ccc(O)c(O)c3Cl)CS[C@H]12)c1csc(N)n1)C(=O)O.O=C(O)C(F)(F)F', 'µg/mL', 0.25);

Below is a list of compounds. For each, state its recorded MIC.
1. Nc1nc(/C(=N/OC(C(=O)O)C2CCC(C(F)(F)F)CC2)C(=O)N[C@@H]2C(=O)N3C(C(=O)O)=C(CSCCNC(=O)c4ccc(O)c(O)c4Cl)CS[C@H]23)cs1.O=C(O)C(F)(F)F (stereo partly specified)
2. Nc1nc(/C(=N/OC(C(=O)O)C2CCCCC2)C(=O)N[C@@H]2C(=O)N3C(C(=O)O)=C(CSCCNC(=O)c4ccc(O)c(O)c4Cl)CS[C@H]23)cs1.O=C(O)C(F)(F)F (stereo partly specified)
3. CC(C)(O/N=C(\C(=O)N[C@@H]1C(=O)N2C(C(=O)O)=C(CSCCNC(=O)c3ccc(O)c(O)c3Cl)CS[C@H]12)c1csc(N)n1)C(=O)O.O=C(O)C(F)(F)F
4. CC(C)(C)C(O/N=C(\C(=O)N[C@@H]1C(=O)N2C(C(=O)O)=C(CSCCNC(=O)c3ccc(O)c(O)c3Cl)CS[C@H]12)c1csc(N)n1)C(=O)O.O=C(O)C(F)(F)F (stereo partly specified)
5. CC(C)(C)C(O/N=C(\C(=O)N[C@@H]1C(=O)N2C(C(=O)O)=C(CS[C@H]3CC[C@@H](NC(=O)c4ccc(O)c(O)c4Cl)CC3)CS[C@H]12)c1csc(N)n1)C(=O)O.O=C(O)C(F)(F)F (stereo partly specified)
6. CC1CCC(C(O/N=C(\C(=O)N[C@@H]2C(=O)N3C(C(=O)O)=C(CSCCNC(=O)c4ccc(O)c(O)c4Cl)CS[C@H]23)c2csc(N)n2)C(=O)O)CC1.O=C(O)C(F)(F)F (stereo partly specified)

Result:
[0.25, 0.125, 0.25, 0.06, 0.5, 0.5]

Origin of the recorded values: ChEMBL document CHEMBL5543142
